Target: A1 receptor (Mesocricetus auratus)
Construct: endogenous in cells; host or cells: DDT1 (DDT1 MF-2) hamster vas deferens smooth muscle cells
Experiment: Competitive binding assay, DDT1 cell membranes, [3H]CCPA
Parameters: species or system hamster
Conditions: [3H]CCPA 2 nM, in presence of Gpp(NH)p (low affinity form); read-out: Ki - DDT1 cell membrane In presence of Gpp (NH)p
Experimental: Cells were subcultured twice weekly by dispersion in Hank's Balanced Salt Solution (HBSS) without the divalent cations and containing 1 mM EDTA. […] Competitive Binding Assay Pig striatum were prepared by homogenation in 50 mM Tris buffer (5× volume of tissue mass pH=7.4). […] The filter disks were counted in scintillation cocktail affording the amount of displacement of triated CPX or by the competitive binding compositions of this invention. […]
Measured Quantity: pKi
Friendly reminder that pKi comes from taking -log10 of the concentration in mol/L.

These recorded examples may help you get a feel for the data.
CCCCNC(=O)OCC1OC(n2cnc3c(N[C@@H]4CCOC4)ncnc32)C(O)C1O (stereo partly drawn): 6.95
CNC(=S)OC[C@H]1O[C@@H](n2cnc3c(N[C@@H]4CCOC4)ncnc32)[C@H](O)[C@@H]1O: 6.85
O=C(NC1CC1)OCC1OC(n2cnc3c(N[C@@H]4CCOC4)ncnc32)C(O)C1O (stereo partly drawn): 5.77

Lookup: pKi lookup needed for O=C(NCc1ccc(F)cc1)OCC1OC(n2cnc3c(N[C@@H]4CCOC4)ncnc32)C(O)C1O (stereo partly drawn) , thanks.
Found: 5.76

Lookup: Entry under review: CN(C)C(=O)OC[C@H]1O[C@@H](n2cnc3c(N[C@@H]4CCOC4)ncnc32)[C@H](O)[C@@H]1O . Reported pKi?
Found: 5.73

Lookup: What does the record list as pKi for CC(C)NC(=O)OCC1OC(n2cnc3c(N[C@@H]4CCOC4)ncnc32)C(O)C1O (stereo partly drawn) ?
Found: 6.37

Lookup: Looking for the measured pKi of CCCCNC(=S)OCC1OC(n2cnc3c(N[C@@H]4CCOC4)ncnc32)C(O)C1O (stereo partly drawn) , can you help?
Found: 6.03

Lookup: Quick one: pKi of CCNC(=O)OC[C@H]1O[C@@H](n2cnc3c(N[C@@H]4CCOC4)ncnc32)[C@H](O)[C@@H]1O ?
Found: 6.14

---

Listed below: cAMP values for each entry.
Molecular target: A1 adenosine receptor (Mesocricetus auratus)
Construct: endogenous in cells; host or cells: DDT1 (DDT1 MF-2) hamster vas deferens smooth muscle cells
Sequence (A0A1U8BVR4 1-326): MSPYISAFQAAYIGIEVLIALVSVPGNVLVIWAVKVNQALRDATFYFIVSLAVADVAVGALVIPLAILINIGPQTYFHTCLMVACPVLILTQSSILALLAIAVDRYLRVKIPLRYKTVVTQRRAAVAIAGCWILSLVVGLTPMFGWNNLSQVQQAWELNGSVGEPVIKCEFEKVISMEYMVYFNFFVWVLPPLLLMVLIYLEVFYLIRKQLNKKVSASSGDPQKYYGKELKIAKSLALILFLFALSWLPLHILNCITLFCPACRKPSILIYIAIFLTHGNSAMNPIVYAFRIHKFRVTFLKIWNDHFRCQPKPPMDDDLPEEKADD
Test: cAMP assay (SPA) in DDT1 cells, forskolin-induced cAMP
Type: cell-based, hamster
Conditions: normalized to full agonist CPA; 5 μM forskolin, 50 μM rolipram
All answers are understood in %, so give the number only.

Some molecules with recorded cAMP:
OC1CCCC1NC(=S)OCC1OC(n2cnc3c(N[C@@H]4CCOC4)ncnc32)C(O)C1O (stereo partly drawn) [Compound 64]: 110
OC1C(COC(=S)NC2CCCC2OCc2ccccc2)OC(n2cnc3c(N[C@@H]4CCOC4)ncnc32)C1O (stereo partly drawn) [Compound 57]: 73
OC[C@H]1O[C@@H](n2cnc3c(NC4CCCC4)ncnc32)[C@H](O)[C@@H]1O [CPA, N-6-cyclopentyladenosine]: 100

Lookup: # cAMP lookup, item OC1C(COC(=S)NC2CCCC2OCc2ccccc2)OC(n2cnc3c(N[C@@H]4CCOC4)ncnc32)C1O (stereo partly drawn) [Compound 56]
Found: 43

Lookup: I'd like to know its cAMP. The molecule in question is O=C(NC1CCCC1OCc1ccccc1)OCC1OC(n2cnc3c(N[C@@H]4CCOC4)ncnc32)C(O)C1O (stereo partly drawn) [Compound 38]
Found: −25

Lookup: Can you share its cAMP? I mean this molecule: O=C(NC1CCCC1OCc1ccccc1)OCC1OC(n2cnc3c(N[C@@H]4CCOC4)ncnc32)C(O)C1O (stereo partly drawn) [Compound 37]
Found: −6
